Molecular target: UniProt:P04626
Assay: Inhibition of N-terminal GST-tagged human HER2 (Lys676 to Val1255 residues) expressed in baculovirus expression system using biotinylated FLT3 at Tyr589 as substrate preincubated for 5 mins followed by substrate addition measured after 30 mins by DELFIA method
Listing of recorded IC50 by entry.

Below, each entry is followed by its recorded IC50 result.
| compound | IC50 |
| --- | --- |
| O=C(CCCCCCOc1ccc2ncnc(Nc3ccc(OCc4cccc(F)c4)c(Cl)c3)c2c1)NO | ≤ 100 nM |
| C[C@@H](Nc1ncnc2[nH]c(-c3ccc(OCCCCCCC(=O)NO)cc3)cc12)c1ccc(F)cc1 | 100 to 1000 nM |
| COc1cc2ncnc(Nc3ccc(OCc4cccc(F)c4)c(Cl)c3)c2cc1OCCCCCCC(=O)NO | ≤ 100 nM |
| C[C@@H](Nc1ncnc2[nH]c(-c3ccc(OCCCCC(=O)NO)cc3)cc12)c1ccccc1 | 100 to 1000 nM |
| C[C@@H](Nc1ncnc2[nH]c(-c3ccc(CNCCCCCC(=O)NO)cc3)cc12)c1ccccc1 | 100 to 1000 nM |
| C[C@@H](Nc1ncnc2[nH]c(-c3ccc(NCc4ccc(C(=O)NO)cc4)cc3)cc12)c1ccccc1 | 100 to 1000 nM |
| C#Cc1cccc(Nc2ncnc3cc(OCCCCCCC(=O)NO)c(OC)cc23)c1 | 100 to 1000 nM |
| O=C(CCCCCNCc1ccc(-c2ccc3ncnc(Nc4ccc(OCc5cccc(F)c5)c(Cl)c4)c3c2)o1)NO | ≤ 100 nM |

### Prompt Given `C[C@@H](Nc1ncnc2[nH]c(-c3ccc(OCCNCCCCCCCC(=O)NO)cc3)cc12)c1ccccc1` , respond with its IC50.
### Response ≤ 100 nM

* * *

Target: Receptor tyrosine-protein kinase erbB-2 (Homo sapiens, UniProt P04626)
Sequence (P04626 whole entry): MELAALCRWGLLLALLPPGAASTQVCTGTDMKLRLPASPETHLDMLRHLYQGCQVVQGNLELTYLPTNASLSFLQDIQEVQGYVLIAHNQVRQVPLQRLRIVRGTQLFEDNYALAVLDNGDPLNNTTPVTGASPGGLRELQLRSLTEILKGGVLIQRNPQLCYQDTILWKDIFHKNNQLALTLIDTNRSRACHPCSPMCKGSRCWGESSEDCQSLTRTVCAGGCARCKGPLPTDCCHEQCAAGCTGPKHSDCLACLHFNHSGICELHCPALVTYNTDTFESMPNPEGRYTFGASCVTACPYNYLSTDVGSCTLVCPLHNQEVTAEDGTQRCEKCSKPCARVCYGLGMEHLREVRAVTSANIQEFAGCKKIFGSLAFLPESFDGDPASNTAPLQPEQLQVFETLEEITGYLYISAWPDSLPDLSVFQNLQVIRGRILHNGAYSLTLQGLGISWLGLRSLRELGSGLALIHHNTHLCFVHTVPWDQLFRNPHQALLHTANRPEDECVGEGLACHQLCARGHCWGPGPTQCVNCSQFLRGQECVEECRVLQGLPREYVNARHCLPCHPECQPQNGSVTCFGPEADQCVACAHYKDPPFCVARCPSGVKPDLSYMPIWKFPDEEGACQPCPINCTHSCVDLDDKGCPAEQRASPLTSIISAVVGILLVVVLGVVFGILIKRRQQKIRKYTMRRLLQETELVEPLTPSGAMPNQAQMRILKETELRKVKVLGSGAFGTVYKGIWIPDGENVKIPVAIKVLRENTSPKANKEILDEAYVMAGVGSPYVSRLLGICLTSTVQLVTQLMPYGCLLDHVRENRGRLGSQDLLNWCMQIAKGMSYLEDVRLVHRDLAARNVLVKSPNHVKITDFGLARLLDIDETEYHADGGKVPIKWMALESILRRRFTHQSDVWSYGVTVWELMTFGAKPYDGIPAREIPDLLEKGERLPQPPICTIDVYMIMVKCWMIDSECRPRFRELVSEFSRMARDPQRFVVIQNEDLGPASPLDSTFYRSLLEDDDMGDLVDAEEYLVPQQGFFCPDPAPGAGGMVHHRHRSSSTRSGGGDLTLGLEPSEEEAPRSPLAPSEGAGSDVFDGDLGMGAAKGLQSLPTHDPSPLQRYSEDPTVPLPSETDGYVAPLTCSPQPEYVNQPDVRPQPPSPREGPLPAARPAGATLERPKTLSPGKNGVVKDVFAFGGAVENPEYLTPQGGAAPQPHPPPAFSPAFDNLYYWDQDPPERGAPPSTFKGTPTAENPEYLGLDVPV
Assay: Inhibition of N-terminal GST-tagged human HER2 (Lys676 to Val1255 residues) expressed in baculovirus expression system using biotinylated FLT3 at Tyr589 as substrate preincubated for 5 mins followed by substrate addition measured after 30 mins by DELFIA method
pIC50: −log10 of the molar value.
Listing of recorded pIC50 by entry.

| compound | pIC50 |
| --- | --- |
| C[C@@H](Nc1ncnc2[nH]c(-c3ccc(CN4CCN(CCC(=O)NO)CC4)cc3)cc12)c1ccccc1 | ≥ 7.00 |

### Prompt Given `C[C@@H](Nc1ncnc2[nH]c(-c3ccc(OCCCC(=O)NO)cc3)cc12)c1ccccc1` , respond with its pIC50.
### Response 6.00 to 7.00

### Prompt Given `C[C@@H](Nc1ncnc2[nH]c(-c3ccc(NCCCCCCC(=O)NO)cc3)cc12)c1ccccc1` , respond with its pIC50.
### Response ≥ 7.00

### Prompt Given `C[C@@H](Nc1ncnc2[nH]c(-c3ccc(NC(=O)CCCC(=O)NO)cc3)cc12)c1ccccc1` , respond with its pIC50.
### Response 6.00 to 7.00

* * *

Target: Vascular endothelial growth factor receptor 2 (Homo sapiens, UniProt P35968)
Sequence (P35968 whole entry, the tested form may be a part): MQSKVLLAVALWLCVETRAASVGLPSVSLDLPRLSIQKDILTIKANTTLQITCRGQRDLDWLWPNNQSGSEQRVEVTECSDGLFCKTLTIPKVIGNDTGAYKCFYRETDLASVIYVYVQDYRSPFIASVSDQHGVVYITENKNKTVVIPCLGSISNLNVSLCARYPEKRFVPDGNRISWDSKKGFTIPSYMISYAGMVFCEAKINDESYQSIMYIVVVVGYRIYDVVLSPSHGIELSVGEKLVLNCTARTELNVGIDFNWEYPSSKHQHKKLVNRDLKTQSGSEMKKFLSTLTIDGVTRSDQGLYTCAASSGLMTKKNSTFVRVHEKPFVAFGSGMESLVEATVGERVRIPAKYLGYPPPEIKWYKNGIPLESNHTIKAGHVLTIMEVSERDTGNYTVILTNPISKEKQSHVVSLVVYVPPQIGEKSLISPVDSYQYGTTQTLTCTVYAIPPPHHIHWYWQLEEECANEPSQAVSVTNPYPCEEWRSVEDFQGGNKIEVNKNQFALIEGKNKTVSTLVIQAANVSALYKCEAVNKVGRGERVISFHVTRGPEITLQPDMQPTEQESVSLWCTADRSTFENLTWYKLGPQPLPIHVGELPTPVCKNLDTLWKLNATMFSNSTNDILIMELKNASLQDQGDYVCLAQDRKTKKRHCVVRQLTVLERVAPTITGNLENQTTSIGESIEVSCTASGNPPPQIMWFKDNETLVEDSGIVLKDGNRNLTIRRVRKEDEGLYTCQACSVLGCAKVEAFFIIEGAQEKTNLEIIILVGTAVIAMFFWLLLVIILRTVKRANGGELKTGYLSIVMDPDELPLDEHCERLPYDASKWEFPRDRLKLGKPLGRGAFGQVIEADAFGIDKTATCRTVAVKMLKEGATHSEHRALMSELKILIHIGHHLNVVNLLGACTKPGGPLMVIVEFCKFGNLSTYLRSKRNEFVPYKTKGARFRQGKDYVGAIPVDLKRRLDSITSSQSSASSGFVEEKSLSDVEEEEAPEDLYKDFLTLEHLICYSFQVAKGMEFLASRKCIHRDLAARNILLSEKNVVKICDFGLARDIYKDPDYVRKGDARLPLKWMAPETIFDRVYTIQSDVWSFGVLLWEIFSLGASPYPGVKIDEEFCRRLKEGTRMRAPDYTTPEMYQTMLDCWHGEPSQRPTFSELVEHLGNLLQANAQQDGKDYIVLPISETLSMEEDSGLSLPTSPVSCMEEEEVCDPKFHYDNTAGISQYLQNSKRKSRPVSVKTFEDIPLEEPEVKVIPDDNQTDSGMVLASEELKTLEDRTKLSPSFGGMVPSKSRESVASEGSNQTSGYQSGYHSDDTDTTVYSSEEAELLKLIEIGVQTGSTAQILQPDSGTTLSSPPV
Experiment: Inhibition of N-terminal GST-His6-thrombin cleavage site-fused human VEGFR2 (Asp805 to Val1356 residues) expressed in baculovirus expression system using biotinylated gastrin precursor at Tyr87 as substrate preincubated for 5 mins followed by substrate addition measured after 30 mins by DELFIA method
recordedEndpoint: IC50

Below, each entry is followed by its recorded IC50 result.
| compound | recordedEndpoint | measured |
| --- | --- | --- |
| C[C@@H](Nc1ncnc2[nH]c(-c3ccc(CNCCCCCCC(=O)NO)cc3)cc12)c1ccccc1 | IC50 | 100 to 1000 nM |
| O=C(CCCCCCCNC(=O)c1cc(Oc2ccc(NC(=O)Nc3ccc(Cl)c(C(F)(F)F)c3)cc2)ccn1)NO | IC50 | 100 to 1000 nM |
| Cc1[nH]c(/C=C2\C(=O)Nc3ccc(F)cc32)c(C)c1C(=O)NCCCC(=O)NO | IC50 | ≤ 100 nM |
| C[C@@H](Nc1ncnc2[nH]c(-c3ccc(CN4CCN(CCCC(=O)NO)CC4)cc3)cc12)c1ccccc1 | IC50 | 100 to 1000 nM |

### Prompt Given `C[C@@H](Nc1ncnc2[nH]c(-c3ccc(CN4CCN(CCCCCCC(=O)NO)CC4)cc3)cc12)c1ccccc1` , respond with its IC50.
### Response 100 to 1000 nM

### Prompt Given `C[C@@H](Nc1ncnc2[nH]c(-c3ccc(CN4CCN(CCCCCC(=O)NO)CC4)cc3)cc12)c1ccccc1` , respond with its IC50.
### Response 100 to 1000 nM

### Prompt Given `O=C(CCCCCNC(=O)c1cc(Oc2ccc(NC(=O)Nc3ccc(Cl)c(C(F)(F)F)c3)cc2)ccn1)NO` , respond with its IC50.
### Response ≤ 100 nM
